Biological target: JH2 domain of human Tyk2 (Homo sapiens (Human), UniProt P29597)
Sequence (P29597 575-876): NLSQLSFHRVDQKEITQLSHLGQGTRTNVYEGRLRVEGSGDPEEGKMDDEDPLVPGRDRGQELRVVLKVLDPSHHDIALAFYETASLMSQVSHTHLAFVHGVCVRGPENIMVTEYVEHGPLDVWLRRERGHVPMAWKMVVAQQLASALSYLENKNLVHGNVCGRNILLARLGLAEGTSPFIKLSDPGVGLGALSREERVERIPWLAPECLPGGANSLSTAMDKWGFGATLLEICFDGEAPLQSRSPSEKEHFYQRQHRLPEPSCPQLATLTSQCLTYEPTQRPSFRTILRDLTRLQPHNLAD
Assay: JH2 Biochemical Assay (TR-FRET probe displacement)
Assay type: binding
Conditions: TR-FRET probe displacement, JH2 domain of human Tyk2
Procedure: The inhibitory potency of compounds of the disclosure against the kinase activity of recombinantly generated JH2 domain of human Tyk2 was evaluated in a plate-based assay using a TR-FRET assay platform. […] The TR-FRET signal inversely correlates to the amount of probe displaced by compounds and signal was calculated by taking the ratio of fluorescence at 520 nm and 495 nm. […]
pIC50: −log10 of the molar value.

| COMPOUND | pIC50 |
| --- | --- |
| COCC1(COc2cnc(NC(C)=O)cc2Nc2cc(C)nc(C(C)(F)F)n2)CC1 | ≥ 8.00 |
| CC(=O)Nc1cc(Nc2ccnc(C(C)(F)F)c2)c(-c2cc(C)ncn2)cn1 | 7.00 to 8.00 |
| CCc1noc(COc2cnc(NC(C)=O)cc2Nc2cc(C)nc(C(C)(F)F)n2)n1 | 7.00 to 8.00 |
| COCCn1cnc(-c2cnc(NC(C)=O)cc2Nc2cc(C)nc(C(C)(F)F)n2)cc1=O | ≥ 8.00 |
| CC(=O)Nc1cc(Nc2cc(C)nc(C(C)(F)F)n2)c(-c2ccnc(C)n2)cn1 | ≥ 8.00 |
| [2H]C([2H])([2H])C([2H])([2H])Oc1cnc(NC(C)=O)cc1Nc1cc(-c2cnn(C(C)C)c2)nc(C(C)(F)F)n1 | ≥ 8.00 |
| CC(=O)Nc1cc(Nc2cccc(C(C)(F)F)n2)c(-c2ccn(C)c(=O)n2)cn1 | ≥ 8.00 |
| COc1nccc(-c2cnc(NC(C)=O)cc2Nc2cc(C)nc(C(C)(F)F)n2)n1 | ≥ 8.00 |
| CC(=O)Nc1cc(Nc2cc(C)nc(C(C)(F)F)n2)c(OCc2nc(C)co2)cn1 | ≥ 8.00 |
| CC(=O)Nc1cc(Nc2cc(OC3CC3)nc(C(C)(F)F)n2)c(O[C@H]2C[C@H](F)C2)cn1 | ≥ 8.00 |
| COc1cnc(Oc2cnc(NC(C)=O)cc2Nc2cc(C)nc(C(C)(F)F)n2)cn1 | ≤ 6.00 |
| COC(C)(C)Cn1ccc(-c2cnc(NC(C)=O)cc2Nc2cc(C)nc(C(C)(F)F)n2)n1 | ≥ 8.00 |
| CCc1cc(Nc2cc(NC(C)=O)ncc2OCCN2CCOCC2)nc(C(C)(F)F)n1 | ≥ 8.00 |
| COCCOc1cnc(NC(C)=O)cc1Nc1cc(C)nc(C(C)CF)n1 (stereo not shown) | ≥ 8.00 |
| CC(=O)Nc1cc(Nc2cc(C)nc(C(C)(F)F)n2)c(OCc2scnc2C)cn1 | 7.00 to 8.00 |
| CC(=O)Nc1cc(Nc2cc(C)nc(C(C)(F)F)n2)c(OCC2CC2(F)F)cn1 (stereo not shown) | ≥ 8.00 |
| CC(=O)Nc1cc(Nc2ccnc(C(C)(F)F)n2)c(-c2cc(N(C)C)ncn2)cn1 | 7.00 to 8.00 |
| [2H]C([2H])([2H])Oc1cnc(NC(C)=O)cc1Nc1cc(C(C)C)nc(C(C)(F)F)n1 | ≥ 8.00 |
| CC(=O)Nc1cc(Nc2cc(C)nc(C(C)(F)F)n2)c(C2CC2)cn1 | ≥ 8.00 |
| CC(=O)Nc1cc(Nc2cc(C)nc(C(C)(F)F)n2)c(OCC2(C(F)(F)F)CC2)cn1 | ≥ 8.00 |
| CCc1cc(Nc2cc(NC(C)=O)ncc2-c2ncn(C)n2)nc(C(C)(F)F)n1 | ≥ 8.00 |
| [2H]C([2H])([2H])C([2H])([2H])Oc1cnc(NC(C)=O)cc1Nc1cc(C)nc(C(C)(F)F)n1 | ≥ 8.00 |
| CC(=O)Nc1cc(Nc2cc(C)nc(C(C)(F)F)n2)c(-c2cc(C(F)F)ncn2)cn1 | ≥ 8.00 |
| COCCOc1cnc(NC(C)=O)cc1Nc1cc(C)nc(C(C)(F)F)n1 | ≥ 8.00 |
| CCOc1cnc(NC(C)=O)cc1Nc1cc(OC2CC3(COC3)C2)nc(C(C)(F)F)n1 | ≥ 8.00 |
| CC(=O)Nc1cc(Nc2cc(C)nc(C(C)(C)F)n2)c(-c2ccnc(C)n2)cn1 | ≥ 8.00 |
| CCOc1cnc(NC(C)=O)cc1Nc1nc(C(C)(F)F)ncc1F | 7.00 to 8.00 |
| COCCNc1cncc(-c2cnc(NC(C)=O)cc2Nc2ccnc(C(C)(F)F)n2)n1 | ≥ 8.00 |

====

biological target: JH2 domain of human Tyk2 (Homo sapiens (Human)); assay: JH2 Biochemical Assay (TR-FRET probe displacement); format: binding; conditions: JH2 domain of human Tyk2, TR-FRET probe displacement
Each entry below lists one item and its recorded IC50 value.

| INPUT SMILES | IC50 |
| --- | --- |
| CC(=O)Nc1cc(Nc2cc(C)nc(C(C)(F)F)n2)c(-c2cc(CN(C)C)ccn2)cn1 | ≤ 10 nM |
| CC(=O)Nc1cc(Nc2cc(C)nc(C(C)(F)F)n2)c(N2CCOCC2)cn1 | 100 to 1000 nM |
| CC(=O)Nc1cc(Nc2ccnc(C(C)(F)F)n2)c(-n2cc(C#N)cn2)cn1 | 10 to 100 nM |
| [2H]C([2H])([2H])C([2H])([2H])Oc1cnc(NC(C)=O)cc1Nc1cc(NC2CCC2)nc(C(C)(F)F)n1 | ≤ 10 nM |

====

molecular target: Tyk2 (Homo sapiens (Human), UniProt P29597); experiment: pSTAT4 Cell Assay (MSD, NK92 cells); type: cell-based
Sequence (P29597 whole entry, the tested form may be a part): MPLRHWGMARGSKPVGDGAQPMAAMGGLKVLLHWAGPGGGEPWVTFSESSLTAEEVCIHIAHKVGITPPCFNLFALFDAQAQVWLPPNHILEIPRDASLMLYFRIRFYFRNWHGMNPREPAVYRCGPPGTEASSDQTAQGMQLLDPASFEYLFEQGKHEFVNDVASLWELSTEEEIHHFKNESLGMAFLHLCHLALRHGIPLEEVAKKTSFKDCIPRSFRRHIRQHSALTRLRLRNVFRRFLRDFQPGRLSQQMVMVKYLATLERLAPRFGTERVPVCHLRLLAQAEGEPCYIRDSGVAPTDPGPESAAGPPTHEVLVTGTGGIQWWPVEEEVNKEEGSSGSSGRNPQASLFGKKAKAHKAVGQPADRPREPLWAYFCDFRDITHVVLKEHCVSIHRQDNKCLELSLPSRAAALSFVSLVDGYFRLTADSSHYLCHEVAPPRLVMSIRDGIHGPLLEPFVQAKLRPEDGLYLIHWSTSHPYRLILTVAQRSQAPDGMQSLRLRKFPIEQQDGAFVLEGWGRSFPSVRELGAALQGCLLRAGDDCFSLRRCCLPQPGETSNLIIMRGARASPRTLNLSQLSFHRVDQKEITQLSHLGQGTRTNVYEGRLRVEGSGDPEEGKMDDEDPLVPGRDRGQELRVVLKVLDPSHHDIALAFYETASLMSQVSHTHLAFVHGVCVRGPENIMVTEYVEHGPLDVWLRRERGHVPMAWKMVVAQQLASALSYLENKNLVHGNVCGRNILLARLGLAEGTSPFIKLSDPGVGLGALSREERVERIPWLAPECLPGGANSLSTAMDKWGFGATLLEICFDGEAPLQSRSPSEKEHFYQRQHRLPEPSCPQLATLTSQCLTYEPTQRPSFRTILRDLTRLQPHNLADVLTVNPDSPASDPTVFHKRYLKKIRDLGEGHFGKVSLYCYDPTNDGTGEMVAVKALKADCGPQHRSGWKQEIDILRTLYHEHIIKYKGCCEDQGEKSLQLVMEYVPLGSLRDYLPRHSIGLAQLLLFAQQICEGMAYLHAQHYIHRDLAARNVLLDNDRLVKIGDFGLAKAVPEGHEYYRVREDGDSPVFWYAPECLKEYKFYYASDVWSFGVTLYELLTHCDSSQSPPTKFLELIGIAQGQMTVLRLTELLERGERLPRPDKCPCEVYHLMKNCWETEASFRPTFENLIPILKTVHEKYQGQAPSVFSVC
pIC50: −log10 of the molar value.
Each entry below lists one item and its recorded pIC50 value.
OUTCOME MEASURE: pIC50

| MOLECULE | VALUE OBSERVED |
| --- | --- |
| CCc1cc(Nc2cc(NC(C)=O)ncc2-c2ncc(OC(F)F)cn2)nc(C(C)(F)F)n1 | ≥ 8.00 |
| CCc1cc(Nc2cc(NC(C)=O)ncc2-c2cnc(C3COCCO3)cn2)nc(C(C)(F)F)n1 (stereo not drawn) | ≥ 8.00 |
| CCc1cc(Nc2cc(NC(C)=O)ncc2-c2ccc(=O)n(C)n2)nc(C(C)(F)F)n1 [Example 831] | ≥ 8.00 |
| CNc1ccc(-c2cnc(NC(C)=O)cc2Nc2ccnc(C(C)(F)F)n2)nc1 | ≥ 8.00 |
| CC(=O)Nc1cc(Nc2cc(C)nc(C(C)(F)F)n2)c(-c2nc3n(n2)CCN(C)C3)cn1 | 7.00 to 8.00 |
| COCCc1cnc(-c2cnc(NC(C)=O)cc2Nc2cc(C)nc(C(C)(F)F)n2)s1 | 6.00 to 7.00 |

====

biological target: JH2 domain of human Tyk2 (Homo sapiens (Human), UniProt P29597); assay: JH2 Biochemical Assay (TR-FRET probe displacement); assay type: binding; settings: JH2 domain of human Tyk2, TR-FRET probe displacement
pIC50: −log10 of the molar value.
OUTCOME MEASURE: pIC50

| COMPOUND | VALUE OBSERVED |
| --- | --- |
| CC(=O)Nc1cc(Nc2cc(C)nc(C(C)(F)F)n2)c(-n2cnc(C)n2)cn1 [Example 735] | 7.00 to 8.00 |
| COc1cccnc1COc1cnc(NC(C)=O)cc1Nc1cc(C)nc(C(C)(F)F)n1 [Example 472] | 7.00 to 8.00 |
| CC(=O)Nc1cc(Nc2cc(C)nc(C(C)(F)F)n2)c(-c2ccn(CC3CC3)n2)cn1 [Example 614] | ≥ 8.00 |
| CC(=O)Nc1cc(Nc2cc(C)nc(C(C)(F)F)n2)c(-c2ccc(S(C)(=O)=O)cn2)cn1 [Example 543] | ≥ 8.00 |
| COc1cnc(NC(C)=O)cc1Nc1cc(-c2cccnc2)nc(C(C)(F)F)n1 [Example 388] | ≥ 8.00 |
| [2H]C([2H])([2H])C([2H])([2H])Oc1cnc(NC(C)=O)cc1Nc1cc(CC)nc(C(C)(F)F)n1 [Example 515] | ≥ 8.00 |
| COc1cnn(-c2cnc(NC(C)=O)cc2Nc2cc(C)nc(C(C)(F)F)n2)c1 [Example 731] | ≥ 8.00 |
| COc1cnc(NC(C)=O)cc1Nc1cc(-c2ccc(F)c(C#N)c2)nc(C(C)(F)F)n1 [Example 394] | ≥ 8.00 |
| CC(=O)Nc1cc(Nc2cc(C)nc(C(C)(F)F)n2)c(-c2ccc([C@H]3CN(C)CCO3)cn2)cn1 (single isomer, unassigned) [Example 644] | ≥ 8.00 |

====

Each entry below lists one item and its recorded pIC50 value.
target: Tyk2 (Homo sapiens (Human), UniProt P29597); experiment: pSTAT4 Cell Assay (MSD, NK92 cells); assay type: cell-based; conditions: MSD
pIC50: −log10 of the molar value.

| MOLECULE | pIC50 |
| --- | --- |
| CC(=O)Nc1cc(Nc2cc(C)nc(C(C)(F)F)n2)c([C@H]2CCCO2)cn1 (single isomer, unassigned) | ≤ 6.00 |
| CC(=O)Nc1cc(Nc2cc(C)nc(C(C)(F)F)n2)c(-c2nc3c(s2)CN(C)C3)cn1 | ≥ 8.00 |
| CCOc1cnc(NC(C)=O)cc1Nc1cc(-c2cnn(CC(C)C)c2)nc(C(C)(F)F)n1 | ≥ 8.00 |
| CCc1cc(Nc2cc(NC(C)=O)ncc2-c2ccc(=O)[nH]n2)nc(C(C)(F)F)n1 | ≤ 6.00 |
| CC(=O)Nc1cc(Nc2cc(C)nc(C(C)(F)F)n2)c(-c2cc(NC(C)C)cnn2)cn1 | ≥ 8.00 |
| CC(=O)Nc1cc(Nc2cc(C)nc(C(C)(F)F)n2)c(OC2CC2)cn1 | 7.00 to 8.00 |
| CC(=O)Nc1cc(Nc2ccnc(C(C)(C)F)n2)c(-c2cc(C)ncn2)cn1 | 7.00 to 8.00 |
| CC(=O)Nc1cc(Nc2cc(C)nc(C(C)(F)F)n2)c(-c2csc(C)n2)cn1 | ≥ 8.00 |
| CC(=O)Nc1cc(Nc2ccnc(C(C)(F)F)n2)c(-c2cnc(COC(F)F)cn2)cn1 | 6.00 to 7.00 |
| COCCOc1cnc(NC(C)=O)cc1Nc1cc(C)nc(C(F)CF)n1 (stereo not drawn) | 7.00 to 8.00 |
| CC(=O)Nc1cc(Nc2cc(C)nc(C(C)(F)F)n2)c(-c2csc(C(C)C)n2)cn1 | ≥ 8.00 |
| COCc1ccc(-c2cnc(NC(C)=O)cc2Nc2cc(C)nc(C3CCCOC3)n2)nc1 (stereo not drawn) | 7.00 to 8.00 |
| COc1cnc(Oc2cnc(NC(C)=O)cc2Nc2cc(C)nc(C(C)(F)F)n2)cn1 | ≤ 6.00 |
| CCc1cc(Nc2cc(NC(C)=O)ncc2-c2cnn(CCOC)n2)nc(C(C)(F)F)n1 | ≥ 8.00 |
| CC(=O)Nc1cc(Nc2ccnc(C(C)(F)F)n2)c(-c2cc(C)c(C#N)cn2)cn1 | ≥ 8.00 |
| CC(=O)Nc1cc(Nc2cc(C)nc(C(C)(F)F)n2)c(-c2cnn(C(C)C)n2)cn1 | ≥ 8.00 |
| CC(=O)Nc1cc(Nc2cc(C)nc(C(C)(F)F)n2)c(OCc2ccnc(F)c2)cn1 | 7.00 to 8.00 |
| COCCOc1cnc(NC(C)=O)cc1Nc1cccc(C2CCOC2)n1 (stereo not drawn) | 6.00 to 7.00 |
